Molecular target: UniProtKB P47745
Sequence (P47745 whole entry): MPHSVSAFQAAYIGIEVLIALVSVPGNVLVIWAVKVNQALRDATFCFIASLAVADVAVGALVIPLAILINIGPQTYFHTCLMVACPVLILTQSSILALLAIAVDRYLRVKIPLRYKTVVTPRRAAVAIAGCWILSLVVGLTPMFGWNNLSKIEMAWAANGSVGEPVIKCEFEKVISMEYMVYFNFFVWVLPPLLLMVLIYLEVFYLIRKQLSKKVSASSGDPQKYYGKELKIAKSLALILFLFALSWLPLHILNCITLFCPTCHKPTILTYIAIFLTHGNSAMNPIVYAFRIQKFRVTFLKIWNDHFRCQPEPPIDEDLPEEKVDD
Experiment: In vitro prolonging of the stimulus-QRS interval in guinea pig heart.
Label Satisfied when EC50 < 20 µM; otherwise Not satisfied.

Answered cases to consult:
(Q) Identify whether the compound CCC(CC)=NNc1nc(N)c2ncn(C3O[C@H](CO)[C@@H](O)[C@H]3O)c2n1 (stereo partly specified) records EC50 below 20 µM.
(A) Satisfied

(Q) Identify whether the compound CC1(C)C2CC=C(/C=N/Nc3nc(N)c4ncn(C5O[C@H](CO)[C@@H](O)[C@H]5O)c4n3)C1C2 (stereo partly specified) records EC50 below 20 µM.
(A) Not satisfied

(Q) Identify whether the compound Nc1nc(N/N=C/CCC2CCCCC2)nc2c1ncn2C1O[C@H](CO)[C@@H](O)[C@H]1O (stereo partly specified) records EC50 below 20 µM.
(A) Not satisfied

(Q) Identify whether the compound CCC/C(C)=N/Nc1nc(N)c2ncn(C3O[C@H](CO)[C@@H](O)[C@H]3O)c2n1 (stereo partly specified) records EC50 below 20 µM.
(A) Satisfied

(Q) Identify whether the compound CC(C)C/C=N/Nc1nc(N)c2ncn([C@@H]3O[C@H](CO)[C@@H](O)[C@H]3O)c2n1 records EC50 below 20 µM.
(A) Not satisfied

(Q) Identify whether the compound Nc1nc(NCCC2CCCCC2)nc2c1ncn2C1O[C@H](CO)[C@@H](O)[C@H]1O (stereo partly specified) records EC50 below 20 µM.
(A) Satisfied

(Q) Identify whether the compound Nc1nc(N/N=C/CC2CCCCC2)nc2c1ncn2C1O[C@H](CO)[C@@H](O)[C@H]1O (stereo partly specified) records EC50 below 20 µM.
(A) Satisfied

(Q) Identify whether the compound CC(C)=NNc1nc(N)c2ncn(C3O[C@H](CO)[C@@H](O)[C@H]3O)c2n1 (stereo partly specified) records EC50 below 20 µM.
(A) Satisfied

(Q) Identify whether the compound CCC(/C=N/Nc1nc(N)c2ncn(C3O[C@H](CO)[C@@H](O)[C@H]3O)c2n1)CC (stereo partly specified) records EC50 below 20 µM.
(A) Satisfied

(Q) Identify whether the compound CCCC/C=N/Nc1nc(N)c2ncn(C3O[C@H](CO)[C@@H](O)[C@H]3O)c2n1 (stereo partly specified) records EC50 below 20 µM.
(A) Not satisfied

More entries:
(Q) Identify whether the compound C/C=N/Nc1nc(N)c2ncn(C3O[C@H](CO)[C@@H](O)[C@H]3O)c2n1 (stereo partly specified) records EC50 below 20 µM.
(A) Satisfied

(Q) Identify whether the compound CC(C)/C=N/Nc1nc(N)c2ncn(C3O[C@H](CO)[C@@H](O)[C@H]3O)c2n1 (stereo partly specified) records EC50 below 20 µM.
(A) Satisfied

(Q) Identify whether the compound Nc1nc(NCCC2=CCCCC2)nc2c1ncn2C1O[C@H](CO)[C@@H](O)[C@H]1O (stereo partly specified) records EC50 below 20 µM.
(A) Not satisfied

(Q) Identify whether the compound CCC/C=N/Nc1nc(N)c2ncn(C3O[C@H](CO)[C@@H](O)[C@H]3O)c2n1 (stereo partly specified) records EC50 below 20 µM.
(A) Satisfied

(Q) Identify whether the compound CC/C=N/Nc1nc(N)c2ncn(C3O[C@H](CO)[C@@H](O)[C@H]3O)c2n1 (stereo partly specified) records EC50 below 20 µM.
(A) Satisfied

====

Target: Adenosine A2 receptor (Cavia porcellus)
Assay: In vitro effect on coronary vasodilation in guinea pig heart.
Entries annotated with measured -Log EC50
Answer field: number only, no words.

(Q) Please report -Log EC50 with Adenosine A2 receptor (Cavia porcellus) for item Nc1nc(N/N=C/CC2CCCCC2)nc2c1ncn2C1O[C@H](CO)[C@@H](O)[C@H]1O (stereo not given in full) .
(A) 9.16

More entries:
(Q) Please report -Log EC50 with Adenosine A2 receptor (Cavia porcellus) for item Nc1nc(NCCC2=CCCCC2)nc2c1ncn2C1O[C@H](CO)[C@@H](O)[C@H]1O (stereo not given in full) .
(A) 8.65

(Q) Please report -Log EC50 with Adenosine A2 receptor (Cavia porcellus) for item CCC(CC)=NNc1nc(N)c2ncn(C3O[C@H](CO)[C@@H](O)[C@H]3O)c2n1 (stereo not given in full) .
(A) 6.75

(Q) Please report -Log EC50 with Adenosine A2 receptor (Cavia porcellus) for item CC(C)/C=N/Nc1nc(N)c2ncn(C3O[C@H](CO)[C@@H](O)[C@H]3O)c2n1 (stereo not given in full) .
(A) 8.13

(Q) Please report -Log EC50 with Adenosine A2 receptor (Cavia porcellus) for item Nc1nc(N/N=C/C2=CC3CCC2C3)nc2c1ncn2C1O[C@H](CO)[C@@H](O)[C@H]1O (stereo not given in full) .
(A) 8.48

(Q) Please report -Log EC50 with Adenosine A2 receptor (Cavia porcellus) for item CCC/C=N/Nc1nc(N)c2ncn(C3O[C@H](CO)[C@@H](O)[C@H]3O)c2n1 (stereo not given in full) .
(A) 8.54

(Q) Please report -Log EC50 with Adenosine A2 receptor (Cavia porcellus) for item CCC/C(C)=N/Nc1nc(N)c2ncn(C3O[C@H](CO)[C@@H](O)[C@H]3O)c2n1 (stereo not given in full) .
(A) 8.7

(Q) Please report -Log EC50 with Adenosine A2 receptor (Cavia porcellus) for item CC(C)C/C=N/Nc1nc(N)c2ncn([C@@H]3O[C@H](CO)[C@@H](O)[C@H]3O)c2n1 .
(A) 9.33

(Q) Please report -Log EC50 with Adenosine A2 receptor (Cavia porcellus) for item CCCC/C=N/Nc1nc(N)c2ncn(C3O[C@H](CO)[C@@H](O)[C@H]3O)c2n1 (stereo not given in full) .
(A) 8.99

(Q) Please report -Log EC50 with Adenosine A2 receptor (Cavia porcellus) for item CC(C)=NNc1nc(N)c2ncn(C3O[C@H](CO)[C@@H](O)[C@H]3O)c2n1 (stereo not given in full) .
(A) 7.3

(Q) Please report -Log EC50 with Adenosine A2 receptor (Cavia porcellus) for item CCC(/C=N/Nc1nc(N)c2ncn(C3O[C@H](CO)[C@@H](O)[C@H]3O)c2n1)CC (stereo not given in full) .
(A) 8.24

(Q) Please report -Log EC50 with Adenosine A2 receptor (Cavia porcellus) for item CC/C=N/Nc1nc(N)c2ncn(C3O[C@H](CO)[C@@H](O)[C@H]3O)c2n1 (stereo not given in full) .
(A) 7.88

(Q) Please report -Log EC50 with Adenosine A2 receptor (Cavia porcellus) for item C/C=N/Nc1nc(N)c2ncn(C3O[C@H](CO)[C@@H](O)[C@H]3O)c2n1 (stereo not given in full) .
(A) 7.12

(Q) Please report -Log EC50 with Adenosine A2 receptor (Cavia porcellus) for item CC(C)(C)/C=N/Nc1nc(N)c2ncn(C3O[C@H](CO)[C@@H](O)[C@H]3O)c2n1 (stereo not given in full) .
(A) 7.46

(Q) Please report -Log EC50 with Adenosine A2 receptor (Cavia porcellus) for item Nc1nc(NCCC2CCCCC2)nc2c1ncn2C1O[C@H](CO)[C@@H](O)[C@H]1O (stereo not given in full) .
(A) 8.72

====

Biological target: Adenosine receptor A1 (Cavia porcellus, UniProt P47745)
Test: In vitro prolonging of the stimulus-QRS interval in guinea pig heart.
Label YES when EC50 < 20 µM; otherwise NO.

Answered cases to consult:
(Q) Identify whether the compound Nc1nc(N/N=C/C2CCCCC2)nc2c1ncn2[C@@H]1O[C@H](CO)[C@@H](O)[C@H]1O records EC50 below 20 µM.
(A) YES

(Q) Identify whether the compound Nc1nc(N/N=C/C2=CCCCC2)nc2c1ncn2C1O[C@H](CO)[C@@H](O)[C@H]1O (stereo partly specified) records EC50 below 20 µM.
(A) YES

(Q) Identify whether the compound Nc1nc(N/N=C/C2CC=CCC2)nc2c1ncn2C1O[C@H](CO)[C@@H](O)[C@H]1O (stereo partly specified) records EC50 below 20 µM.
(A) YES

Could you now look at the following compound, please?
(Q) Identify whether the compound CC(C)(C)/C=N/Nc1nc(N)c2ncn(C3O[C@H](CO)[C@@H](O)[C@H]3O)c2n1 (stereo partly specified) records EC50 below 20 µM.
(A) NO
